- systemUnderTest: T1, human GIP receptor (human, UniProt P48546 22-466)
- T1 sequence (looked up): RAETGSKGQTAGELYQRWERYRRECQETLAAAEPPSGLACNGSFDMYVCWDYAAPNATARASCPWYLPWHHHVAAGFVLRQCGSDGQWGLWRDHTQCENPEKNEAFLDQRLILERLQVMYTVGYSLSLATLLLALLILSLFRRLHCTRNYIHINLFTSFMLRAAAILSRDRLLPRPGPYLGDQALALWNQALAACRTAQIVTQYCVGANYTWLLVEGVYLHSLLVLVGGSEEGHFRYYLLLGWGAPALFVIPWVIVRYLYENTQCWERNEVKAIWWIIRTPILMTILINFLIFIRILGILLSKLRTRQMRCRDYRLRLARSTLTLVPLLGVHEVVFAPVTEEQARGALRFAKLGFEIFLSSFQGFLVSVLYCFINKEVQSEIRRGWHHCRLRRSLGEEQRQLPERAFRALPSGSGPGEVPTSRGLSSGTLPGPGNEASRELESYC
- experimentDescription: cell-based or functional assay
*1 amine or outer side, *2 acyl side, *3 side chain or, on linkers, in order; H or OH if unused. Where no end group is shown, it is not given here. Side-chain parts run from the residue outwards. [ ]: non-standard residue; d: D form. The star is where a group is joined. αMePhe(2-F) = C[C@](N)(Cc1ccccc1F)C(=O)O; γGlu = O=C(O)[C@H](CCC(=O)[*:2])N[*:1]; C14 diacid = O=C(O)CCCCCCCCCCCCC(=O)*; αMeY = C[C@](N)(Cc1ccc(O)cc1)C(=O)O; αMeL = CC(C)C[C@](C)(N)C(=O)O; Nle = CCCC[C@H](N)C(=O)O; Orn = NCCC[C@H](N)C(=O)O; AEEA = NCCOCCOCC(=O)O; Aib = CC(C)(N)C(=O)O
Kindly supply the reported cAMP Emax (1.0% HSA) values for the records listed here.
Express your answer in %, writing the number without its unit.

# get_value(readout='cAMP Emax (1.0% HSA)', item= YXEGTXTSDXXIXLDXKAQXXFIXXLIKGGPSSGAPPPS (Y-Aib-EGT-αMeF(2F)-TSD-4Pal-Aib-I-αMeL-LD-Orn-K((2-[2-(2-Amino-ethoxy)-ethoxy]-acetyl)2-(γ-Glu)-CO-(CH2)10-CH3)AQ-Aib-Orn-FI-(D-Glu)-αMeY-LIK((2-[2-(2-Amino-ethoxy)-ethoxy]-acetyl)2-(γ-Glu)-CO-(CH2)10-CH3)GGPSSGAPPPS-NH2) [Example 414] ) 92.2

Looking for the measured cAMP Emax (1.0% HSA) of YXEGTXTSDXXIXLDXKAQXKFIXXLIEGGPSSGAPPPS (Y-Aib-EGT-αMeF(2F)-TSD-4Pal-Aib-I-αMeL-LD-Orn-K((2-[2-(2-Amino-ethoxy)-ethoxy]-acetyl)-(γ-Glu)-CO-(CH2)10-CH3)AQ-Aib-K((2-[2-(2-Amino-ethoxy)-ethoxy]-acetyl)-(γ-Glu)-CO-(CH2)10-CH3)FI-(D-Glu)-αMeY-LIEGGPSSGAPPPS-NH2) [Example 426] , can you help? 91.2

Could you tell me which cAMP Emax (1.0% HSA) is on file for YXEGTXTSDXXIXLDXQAQXKFIXXLIKGGPSSGAPPPS (Y-Aib-EGT-αMeF(2F)-TSD-4Pal-Aib-I-αMeL-LD-Orn-QAQ-Aib-K((2-[2-(2-Amino-ethoxy)-ethoxy]-acetyl)2-(γ-Glu)-CO-(CH2)12-CO2H)FI-(D-Glu)-αMeY-LIK((2-[2-(2-Amino-ethoxy)-ethoxy]-acetyl)2-(γ-Glu)-CO-(CH2)12-CO2H)GGPSSGAPPPS-NH2) [Example 488] ? 85.5

Param item = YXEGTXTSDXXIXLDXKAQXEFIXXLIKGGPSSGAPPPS (Y-Aib-EGT-αMeF(2F)-TSD-4Pal-Aib-I-αMeL-LD-Orn-K((2-[2-(2-Amino-ethoxy)-ethoxy]-acetyl)-(γ-Glu)-(10-(4-carboxyphenoxy)decanoyl))AQ-Aib-EFIe-αMeY-LIK((2-[2-(2-Amino-ethoxy)-ethoxy]-acetyl)-(γ-Glu)-(10-(4-carboxyphenoxy)decanoyl))GGPSSGAPPPS-NH2) [Example 361] ; retrieve measured cAMP Emax (1.0% HSA). 88.8

What value of cAMP Emax (1.0% HSA) has been reported for the following binder? Y[Aib]EGT[αMePhe(2-F)]TSDV[Aib]I[αMeL]LD[Orn]K([AEEA-AEEA-C14 diacid])AQ[Aib]EFI[dE][αMeY]LIK([AEEA-AEEA-C14 diacid])GGPSSGAPPPS-NH2 [Example 389] 82

Returns the measured cAMP Emax (1.0% HSA) for the input binder. Input: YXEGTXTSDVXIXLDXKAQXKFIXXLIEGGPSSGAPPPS (Y-Aib-EGT-αMeF(2F)-TSDV-Aib-I-αMeL-LD-Orn-K((2-[2-(2-Amino-ethoxy)-ethoxy]-acetyl)2-CO-(CH2)12-CO2H)AQ-Aib-K((2-[2-(2-Amino-ethoxy)-ethoxy]-acetyl)2-CO-(CH2)12-CO2H)FI-(D-Glu)-αMeY-LIEGGPSSGAPPPS-NH2) [Example 386] 81.3

Which cAMP Emax (1.0% HSA) reading was recorded for the binder YXEGTXTSDKXIXLDGKAQXEFIXXLIEGGPSSGAPPPS (Y-Aib-EGT-αMeF(2F)-TSDK((2-[2-(2-Amino-ethoxy)-ethoxy]-acetyl)2-(γ-Glu)-CO-(CH2)10-CH3)-Aib-I-αMeL-LDGK((2-[2-(2-Amino-ethoxy)-ethoxy]-acetyl)2-(γ-Glu)-CO-(CH2)10-CH3)AQ-Aib-EFI-(D-Glu)-αMeY-LIEGGPSSGAPPPS-NH2) [Example 445] ? 91.4

Find the recorded cAMP Emax (1.0% HSA) belonging to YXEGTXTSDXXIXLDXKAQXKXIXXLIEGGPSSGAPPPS (not fully specified; Y-Aib-EGT-αMeF(2F)-TSD-4Pal-Aib-I-αMeL-LD-Orn-K((2-[2-(2-Amino-ethoxy)-ethoxy]-acetyl)2-(γ Glu)-CO-(CH2)10H3)AQ-Aib-K((2-[2-(2-Amino-ethoxy)-ethoxy]-acetyl)2-(γGlu)-CO-(CH2)10C3)-αMeFI-(D-Glu)-αMeY-LIEGGPSSGAPPPS-NH2) [Example 430] and report it. 91.5

// cAMP Emax (1.0% HSA) lookup, key: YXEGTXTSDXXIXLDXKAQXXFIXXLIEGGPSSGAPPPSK (Y-Aib-EGT-αMeF(2F)-TSD-4Pal-Aib-I-αMeL-LD-Orn-K((2-[2-(2-Amino-ethoxy)-ethoxy]-acetyl)3-(γ Glu)-CO-(CH2)10CH3)AQ-Aib-Orn-FI-(D-Glu)-αMeY-LIEGGPSSGAPPPSK((2-[2-(2-Amino-ethoxy)-ethoxy]-acetyl)3-(γ-Glu)-CO-(CH2)10-CH3)-NH2) [Example 435] 98.7

Please give the measured cAMP Emax (1.0% HSA) for this binder: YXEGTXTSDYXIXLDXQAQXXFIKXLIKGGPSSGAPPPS (Y-Aib-EGT-αMeF(2F)-TSDY-Aib-I-αMeL-LD-Orn-QAQ-Aib-Orn-FIK((2-[2-(2-Amino-ethoxy)-ethoxy]-acetyl)2-(γ-Glu)-CO-(CH2)12-CO2H)-αMeY-LIK((2-[2-(2-Amino-ethoxy)-ethoxy]-acetyl)2-(γ-Glu)-CO-(CH2)12-CO2H)GGPSSGAPPPS-NH2) [Example 401] 83

Param item = Y[Aib]EGT[αMePhe(2-F)]TSD[Nle]SI[αMeL]LD[Orn]QAQ[Aib][Orn]FIK([AEEA-AEEA-γGlu-C14 diacid])[αMeY]LIK([AEEA-AEEA-γGlu-C14 diacid])GGPSSGAPPPS-NH2 [Example 490] ; retrieve measured cAMP Emax (1.0% HSA). 97.1
